tested.target: T1, EsCas13d, nuclease-dead (Eubacterium siraeum, UniProt B0MS50, R295A;H300A;R849A;H854A)
T1 sequence: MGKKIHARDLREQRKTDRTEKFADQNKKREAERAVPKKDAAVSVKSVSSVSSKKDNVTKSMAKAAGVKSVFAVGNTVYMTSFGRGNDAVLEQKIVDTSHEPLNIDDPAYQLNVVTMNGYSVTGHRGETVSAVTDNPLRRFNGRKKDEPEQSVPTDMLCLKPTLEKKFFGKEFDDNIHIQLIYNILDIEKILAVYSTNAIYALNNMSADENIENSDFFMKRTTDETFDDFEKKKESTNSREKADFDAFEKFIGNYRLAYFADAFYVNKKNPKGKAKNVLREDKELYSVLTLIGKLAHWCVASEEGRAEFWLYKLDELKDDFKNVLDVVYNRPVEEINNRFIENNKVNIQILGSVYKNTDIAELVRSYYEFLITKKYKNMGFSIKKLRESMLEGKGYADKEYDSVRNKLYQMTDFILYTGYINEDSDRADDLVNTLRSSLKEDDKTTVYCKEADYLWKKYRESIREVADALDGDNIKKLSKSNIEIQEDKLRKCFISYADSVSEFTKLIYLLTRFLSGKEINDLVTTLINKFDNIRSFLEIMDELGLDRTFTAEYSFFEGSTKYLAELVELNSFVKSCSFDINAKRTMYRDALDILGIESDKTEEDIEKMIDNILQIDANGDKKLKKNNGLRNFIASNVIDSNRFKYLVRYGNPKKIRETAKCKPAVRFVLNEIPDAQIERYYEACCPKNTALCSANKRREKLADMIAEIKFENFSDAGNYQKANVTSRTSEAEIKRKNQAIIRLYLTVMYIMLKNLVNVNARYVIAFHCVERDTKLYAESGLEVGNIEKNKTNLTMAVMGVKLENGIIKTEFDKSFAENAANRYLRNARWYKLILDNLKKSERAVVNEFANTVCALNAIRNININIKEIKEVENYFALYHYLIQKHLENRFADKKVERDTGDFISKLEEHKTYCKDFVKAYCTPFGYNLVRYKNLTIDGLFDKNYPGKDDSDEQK
run.description: crRNA (strand 1, pre-loaded); Mg2+; 40 mM Tris-HCl pH 7.5, 150 mM NaCl, 6 mM MgCl2, 1 mM DTT, 0.1% Tween-20, 0.2 mg/ml BSA; 25 C; 10 min per concentration, then washed
experimental.setup: tags: His6-TwinStrep-SUMO cleaved; N-terminal SNAP kept (SNAP-Surface 488); label: 3' end held by stalled T7 RNA polymerase
pKd: −log10 of the molar value.
Quick rule for you: pKd at 8 or higher means y, lower means n.

target 1 MT 5'PFS UCG 3'PFS UUU (mixed) RNA 1: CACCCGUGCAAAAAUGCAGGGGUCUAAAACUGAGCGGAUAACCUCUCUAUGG RNA 2: GGGAAUGGAUCCACAUCUACGAAUUCUCGCCAUAGAGAGGUUAUCCGCUCAUUUAGAUCGGAAGAGCACACGU | n
target 1 insU 3' of 21,insU 3' of 12 (mixed) RNA 1: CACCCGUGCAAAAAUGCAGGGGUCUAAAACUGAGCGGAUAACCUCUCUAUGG RNA 2: GGGAAUGGAUCCACAUCUACGAAUUCGUACCUAUAGAGAGGUUUAUCCGCUCACCGAGAUCGGAAGAGCACACGU | n
target 1 insU 3' of 9,insU 3' of 1 (mixed) RNA 1: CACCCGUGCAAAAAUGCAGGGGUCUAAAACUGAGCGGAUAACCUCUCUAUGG RNA 2: GGGAAUGGAUCCACAUCUACGAAUUCGUACCAUAGAGAGGUUAUUCCGCUCAUCCGAGAUCGGAAGAGCACACGU | n
target 2 MT 5'PFS CAC 3'PFS AAA (mixed) RNA 1: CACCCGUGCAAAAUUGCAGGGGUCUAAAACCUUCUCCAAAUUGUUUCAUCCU RNA 2: GGGAAUGGAUCCACAUCUACGAAUUCCACAGGAUGAAACAAUUUGGAGAAGAAAAGAUCGGAAGAGCACACGU | y
target 1 insC 3' of 19,insC 3' of 18 (mixed) RNA 1: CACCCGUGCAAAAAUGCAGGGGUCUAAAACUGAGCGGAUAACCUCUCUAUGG RNA 2: GGGAAUGGAUCCACAUCUACGAAUUCGUACCAUCACGAGAGGUUAUCCGCUCACCGAGAUCGGAAGAGCACACGU | n

Lab note: next binder to report on.
# input Given target 1 insC 3' of 11,insA 3' of 2 (mixed) RNA 1: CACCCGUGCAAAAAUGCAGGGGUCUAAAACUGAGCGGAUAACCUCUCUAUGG RNA 2: GGGAAUGGAUCCACAUCUACGAAUUCGUACCAUAGAGAGGUCUAUCCGCUCAACCGAGAUCGGAAGAGCACACGU , state whether its pKd is at least 8.
# output n
